# METHOD: basal CRE-LacZ reporter activity in PC12 – cell-based, unstimulated, primary screen (AID 1145)
# EXPERIMENTAL SETUP: no forskolin, luminescence, 4.5 h, higher = more signal, called active from +8 up or from −8 down
MEASURED METRIC: z-score
// response body must contain only the number

Recorded results for 2 compounds are shown here.
CC[C@@H]1O[Si](C(C)C)(C(C)C)c2c1cc(-c1cc(C)c(OC)c(C)c1)nc2-c1ccc(Oc2ccccc2)cc1	-0.491
CO[C@H]1O[C@H](CO)[C@@H](OC(=O)Nc2ccccc2)[C@H](OC(=O)c2cc3ccccc3[nH]2)[C@H]1OC(=O)c1cc2ccccc2[nH]1	-0.211

The compound listed as `COc1ccc([Si](C)(C)[C@@H]2[C@@H](CC(=O)N3CCC[C@H]3CO)O[C@]3(C(=O)N(Cc4cccc(N5C(=O)COc6ccccc65)c4)c4ccccc43)[C@H]2C)cc1` has a reported z-score of 1.5

The compound `C#Cc1cc2ccccc2oc1=O` showed z-score equal to 0.136

Origin of values: PubChem BioAssay
